FYI, the data here is from patent US20220242812A1.

Reported IC50 values, CYP 3A4 (Homo sapiens).

[
  {
    "Compound": "CCCCC1(C2CCCC2)Cc2cc(OCCCC(=O)O)c(Cl)c(Cl)c2C1=O (centres unmarked) [SN-401]",
    "IC50": "> 10 µM"
  }
]

Proceed to the following item.
*Q* Look up IC50 with CYP 3A4 (Homo sapiens) for this compound: CCCCC1(C2CCCC2)Cc2cc(OCCCCCC(=O)O)c(Cl)c(Cl)c2C1=O (centres unmarked) [SN-406]
Sequence (P08684 whole entry): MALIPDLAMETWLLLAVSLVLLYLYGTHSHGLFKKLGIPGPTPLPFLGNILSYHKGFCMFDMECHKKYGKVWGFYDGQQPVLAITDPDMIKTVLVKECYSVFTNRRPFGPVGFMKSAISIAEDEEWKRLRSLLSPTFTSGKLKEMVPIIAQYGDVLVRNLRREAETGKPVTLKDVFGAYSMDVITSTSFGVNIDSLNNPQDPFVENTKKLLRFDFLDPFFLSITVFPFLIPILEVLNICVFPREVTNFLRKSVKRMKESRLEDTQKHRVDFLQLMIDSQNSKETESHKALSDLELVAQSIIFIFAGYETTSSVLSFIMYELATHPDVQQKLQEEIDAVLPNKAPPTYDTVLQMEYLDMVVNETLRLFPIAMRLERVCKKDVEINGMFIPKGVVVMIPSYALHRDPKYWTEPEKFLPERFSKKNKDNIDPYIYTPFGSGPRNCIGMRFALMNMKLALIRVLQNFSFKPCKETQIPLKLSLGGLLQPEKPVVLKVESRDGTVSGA
*A* > 10 µM

###

compounds and their reported bioavailability
Test: In vivo pharmacokinetics in mice
Settings: male, C57/BL6, mouse, plasma, po, 5 mg/kg, AUCp.o./AUCi.v.
Procedure: Male C57/BL6 mice were used in the study and assessed for a single dose (5 mg/kg) administration. […] The area under the plasma concentration-time curve (AUCint) is calculated from time 0 to infinity where the Cmax is the maximal concentration achieved in plasma and t112 is the terminal elimination half-life. Oral bioavailability was calculated as AUCorailAUC1v*100.
Dear colleague, please return just the value in %, with no unit written.

[
  {
    "Compound": "CCCCC1(C2CCCC2)Cc2cc(OCCCC(=O)O)c(Cl)c(Cl)c2C1=O (centres unmarked) [SN-401]",
    "bioavailability [%]": 79
  }
]

*Q* So what does the record say about bioavailability for CCCCC1(C2CCCC2)Cc2cc(OCCCCCC(=O)O)c(Cl)c(Cl)c2C1=O (centres unmarked) [SN-406] ?
*A* 48

###

test: Microsomal metabolic stability assay; format: in vitro ADME; conditions: human liver microsomes; read-out: Human hepatic microsome stability Clintrinsic
Here, each record is paired with measured CLint scaled data.
Just the number please, in mL/min/kg, no unit attached.

[
  {
    "Compound": "CCCCC1(C2CCCC2)Cc2cc(OCCCC(=O)O)c(Cl)c(Cl)c2C1=O (centres unmarked)",
    "CLint scaled, mL/min/kg": 72.7
  }
]

*Q* I have this compound here, CCCCC1(C2CCCC2)Cc2cc(OCCCCCC(=O)O)c(Cl)c(Cl)c2C1=O (centres unmarked) , and I need its recorded CLint scaled.
*A* 46.4

###

assay: Caco-2 permeability assay; assay type: in vitro ADME; conditions: human, Caco-2; read-out: Caco-2 efflux ratio B-A/A-B
Outcome Measure: efflux ratio at 2 h
Form: value (number only, do not type unit).

*Q* Can you look up the measured efflux ratio at 2 h of CCCCC1(C2CCCC2)Cc2cc(OCCCCCC(=O)O)c(Cl)c(Cl)c2C1=O (stereo not shown) for me?
*A* 1.58

###

target: CYP 2D6 (Homo sapiens)
Sequence (P10635 whole entry): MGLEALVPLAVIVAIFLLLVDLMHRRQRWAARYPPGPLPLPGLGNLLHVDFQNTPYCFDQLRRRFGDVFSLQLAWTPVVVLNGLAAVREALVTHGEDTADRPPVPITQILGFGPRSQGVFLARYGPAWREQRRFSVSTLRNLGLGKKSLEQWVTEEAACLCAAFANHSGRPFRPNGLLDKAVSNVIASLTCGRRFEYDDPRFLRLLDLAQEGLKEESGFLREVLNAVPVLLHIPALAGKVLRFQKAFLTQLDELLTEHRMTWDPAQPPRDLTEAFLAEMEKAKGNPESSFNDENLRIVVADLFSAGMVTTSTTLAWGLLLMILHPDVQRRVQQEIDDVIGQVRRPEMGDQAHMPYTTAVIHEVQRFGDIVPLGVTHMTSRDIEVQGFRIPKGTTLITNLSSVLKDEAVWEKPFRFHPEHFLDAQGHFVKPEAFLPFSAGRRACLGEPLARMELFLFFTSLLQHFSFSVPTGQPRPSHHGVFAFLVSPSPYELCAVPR
Outcome Measure: IC50

*Q* Fill in the recorded IC50 for this molecule, with CYP 2D6 (Homo sapiens) as test system: CCCCC1(C2CCCC2)Cc2cc(OCCCC(=O)O)c(Cl)c(Cl)c2C1=O (stereo not shown)
*A* > 10 µM

###

Here we list molecules with their recorded pIC50 when tested on CYP 2C9 (Homo sapiens).
Sequence (P11712 whole entry): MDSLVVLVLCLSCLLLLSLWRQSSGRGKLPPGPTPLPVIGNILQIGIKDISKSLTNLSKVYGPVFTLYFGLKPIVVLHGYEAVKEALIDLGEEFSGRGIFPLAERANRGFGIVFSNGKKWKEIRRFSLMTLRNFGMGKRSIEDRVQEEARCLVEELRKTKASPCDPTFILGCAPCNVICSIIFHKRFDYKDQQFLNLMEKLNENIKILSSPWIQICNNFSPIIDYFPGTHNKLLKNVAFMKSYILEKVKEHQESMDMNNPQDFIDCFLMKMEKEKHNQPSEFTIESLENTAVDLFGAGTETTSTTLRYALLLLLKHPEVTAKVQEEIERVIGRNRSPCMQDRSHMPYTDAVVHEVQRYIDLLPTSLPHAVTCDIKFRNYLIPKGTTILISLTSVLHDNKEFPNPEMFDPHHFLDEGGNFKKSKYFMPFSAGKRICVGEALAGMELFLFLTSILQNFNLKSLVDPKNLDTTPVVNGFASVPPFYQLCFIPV
pIC50: −log10 of the molar value.

[
  {
    "Molecule": "CCCCC1(C2CCCC2)Cc2cc(OCCCC(=O)O)c(Cl)c(Cl)c2C1=O (centres unmarked)",
    "Assay System": "CYP 2C9 (Homo sapiens)",
    "pIC50": "> 5.00"
  }
]

*Q* Given the entry CCCCC1(C2CCCC2)Cc2cc(OCCCCCC(=O)O)c(Cl)c(Cl)c2C1=O (centres unmarked) , what pIC50 was observed with CYP 2C9 (Homo sapiens)?
*A* < 5.00
